This section presents variants with their documented yeast fitness values.
B1: tRNA (parent)
chain: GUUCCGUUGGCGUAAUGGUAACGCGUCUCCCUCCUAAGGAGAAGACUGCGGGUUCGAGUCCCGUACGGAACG

Variants of: B1
Assay: yeast fitness relative to wild type (ratio to wild type); higher = fitter; tRNA-Arg(CCU), competitive growth, 37 C, YPD
Variants at the floor of the assay were thinned out.
Please state the value as a number alone, without comment.

Consider the worked cases shown below.
U8A G51A ... 0.63
C4U G44A G58A ... 0.974
C34A A70G ... 0.634
U7A G44A ... 0.755

QUERY: Report yeast fitness for C11A G25C C29U A65C A70U please.
RESULT: 0.541

QUERY: Report yeast fitness for U16A C22A please.
RESULT: 0.941

QUERY: Report yeast fitness for A15G G38C C49U please.
RESULT: 0.544

QUERY: Report yeast fitness for C30G G38A please.
RESULT: 0.572

QUERY: Report yeast fitness for C24G C27A please.
RESULT: 0.616

QUERY: Report yeast fitness for C24A A42G C61U C62G please.
RESULT: 0.541

QUERY: Report yeast fitness for C4A G58A please.
RESULT: 0.878

QUERY: Report yeast fitness for G17C C22G please.
RESULT: 0.619

QUERY: Report yeast fitness for G18A G44C please.
RESULT: 0.767

QUERY: Report yeast fitness for G18U G39A please.
RESULT: 0.594

QUERY: Report yeast fitness for U19G C49U C62A please.
RESULT: 0.598

QUERY: Report yeast fitness for U47A G67A please.
RESULT: 0.765

QUERY: Report yeast fitness for A21C C49A A70G please.
RESULT: 0.626

QUERY: Report yeast fitness for U7G U54C please.
RESULT: 0.905
